Target: Induced myeloid leukemia cell differentiation protein Mcl-1 homolog (Mus musculus)
Assay: Binding affinity for GST-tagged mouse MCL1 expressed in Escherichia coli BL21 cells
Listing: Kd of selected compounds

Kindly note the recorded Kd for "CN(C)CC[C@H](CSc1ccccc1)Nc1ccc(S(=O)(=O)NC(=O)c2ccc(N3CCC(C)(C)CC3)cc2)cc1[N+](=O)[O-]" , which is > 1000 nM

// switching to the query compound
compound "CN(C)CC[C@H](CSc1ccccc1)Nc1ccc(S(=O)(=O)NC(=O)c2ccc(N3CCN(Cc4ccccc4-c4ccc(Cl)cc4)CC3)cc2)cc1[N+](=O)[O-]" , Kd observed: > 1000 nM

---

Target: Bcl-2-like protein 2 (Homo sapiens)
Sequence (Q92843 whole entry): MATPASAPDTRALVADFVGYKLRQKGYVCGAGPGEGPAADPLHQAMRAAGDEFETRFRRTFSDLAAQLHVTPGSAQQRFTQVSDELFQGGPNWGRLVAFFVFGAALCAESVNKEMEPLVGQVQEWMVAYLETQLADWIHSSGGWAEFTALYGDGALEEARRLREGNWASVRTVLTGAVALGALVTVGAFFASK
QUANTITY: Ki (nM)
The answer is to be given in nM; state only the numeric part.

The measured Ki associated with "C[C@@H]1CN(c2ccc(C(=O)NS(=O)(=O)c3ccc(N[C@H](CCN(C)C)CSc4ccccc4)c([N+](=O)[O-])c3)cc2)CCN1Cc1ccccc1C(F)(F)F" reads 55

---

Biological target: Bcl-2-like protein 1 (Homo sapiens, UniProt Q07817, L130V)
Sequence (Q07817 whole entry L130V): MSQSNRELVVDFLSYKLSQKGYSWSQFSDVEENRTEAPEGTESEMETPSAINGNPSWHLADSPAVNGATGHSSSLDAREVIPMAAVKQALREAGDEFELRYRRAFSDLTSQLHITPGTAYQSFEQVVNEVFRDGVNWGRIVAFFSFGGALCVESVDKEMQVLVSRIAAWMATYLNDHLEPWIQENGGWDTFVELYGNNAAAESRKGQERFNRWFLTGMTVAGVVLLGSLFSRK
Assay: Displacement of BODIPY-Bak conjugated peptide from GST-tagged human Bcl-2-like protein 1 L130V mutant expressed in Escherichia coli BL21 cells at 40 uM after 3 hrs by fluorescence polarization competition assay
QUANTITY: Ki

get_value(item= "H-PAELEVECATQLRRFGDKLNFRQKLL-OH" , readout=Ki) returns > 10 µM

---

Target: Bcl-2-like protein 1 (Homo sapiens, UniProt Q07817, F97V)
Sequence (Q07817 whole entry F97V): as the sequence (Q07817 whole entry L130V) above, with F97V, V130L counted along it
Assay: Displacement of BODIPY-Bak conjugated peptide from GST-tagged human Bcl-2-like protein 1 F97V mutant expressed in Escherichia coli BL21 cells at 40 uM after 3 hrs by fluorescence polarization competition assay
pKi: −log10 of the molar value.
QUANTITY: pKi

The value of pKi measured for the substance "H-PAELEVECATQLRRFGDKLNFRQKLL-OH" turned out to be < 5.00

---

Molecular target: Bcl-2-like protein 1 (Homo sapiens, UniProt Q07817, A142T)
Sequence (Q07817 whole entry A142T): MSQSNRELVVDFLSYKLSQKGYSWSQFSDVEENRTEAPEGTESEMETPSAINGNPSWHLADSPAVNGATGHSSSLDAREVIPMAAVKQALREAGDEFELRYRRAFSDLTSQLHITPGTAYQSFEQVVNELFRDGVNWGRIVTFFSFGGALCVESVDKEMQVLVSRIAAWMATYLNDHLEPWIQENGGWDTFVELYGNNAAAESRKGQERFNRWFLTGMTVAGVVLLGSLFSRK
Experiment: Displacement of BODIPY-Bak conjugated peptide from GST-tagged human Bcl-2-like protein 1 A142T mutant expressed in Escherichia coli BL21 cells at 40 uM after 3 hrs by fluorescence polarization competition assay
QUANTITY: Ki

// recorded Ki for "H-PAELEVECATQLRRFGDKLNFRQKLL-OH" : > 10 µM

---

Target: Induced myeloid leukemia cell differentiation protein Mcl-1 homolog (Mus musculus, UniProt P97287)
Sequence (P97287 whole entry): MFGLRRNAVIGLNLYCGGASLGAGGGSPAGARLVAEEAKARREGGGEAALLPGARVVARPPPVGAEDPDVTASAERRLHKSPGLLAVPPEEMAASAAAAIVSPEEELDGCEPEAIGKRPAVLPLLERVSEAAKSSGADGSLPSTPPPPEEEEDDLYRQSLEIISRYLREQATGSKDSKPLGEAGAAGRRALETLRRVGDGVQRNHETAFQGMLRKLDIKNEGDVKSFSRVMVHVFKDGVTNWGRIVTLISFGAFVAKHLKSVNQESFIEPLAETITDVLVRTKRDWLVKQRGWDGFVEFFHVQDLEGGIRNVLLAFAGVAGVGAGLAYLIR
Test: Displacement of BODIPY-Bak conjugated peptide from GST-tagged mouse wild type MCL1 expressed in Escherichia coli BL21 cells at 10 uM after 3 hrs by fluorescence polarization competition assay
Below, each entry is listed with its recorded pKi.
pKi is a log-scale quantity: -log10 of the concentration expressed in molar.

A selection of reference data follows.
# compound "CC(C)[C@@H]1CN(Cc2ccccc2C(F)(F)F)CCN1c1ccc(C(=O)NS(=O)(=O)c2ccc(N[C@H](CCN(C)C)CSc3ccccc3)c([N+](=O)[O-])c2)cc1" ; its pKi = 5.70

Entry "C[C@@H]1CN(c2ccc(C(=O)NS(=O)(=O)c3ccc(N[C@H](CCN(C)C)CSc4ccccc4)c([N+](=O)[O-])c3)cc2)CCN1Cc1ccccc1C(F)(F)F" , pKi reported as 5.82

The value of pKi measured for the compound "C[C@H]1CN(c2ccc(C(=O)NS(=O)(=O)c3ccc(N[C@H](CCN(C)C)CSc4ccccc4)c([N+](=O)[O-])c3)cc2)CCN1Cc1ccccc1C(F)(F)F" turned out to be 5.70

Next compound, pKi to be filled in.
# pKi (compound: "CC(C)[C@H]1CN(Cc2ccccc2C(F)(F)F)CCN1c1ccc(C(=O)NS(=O)(=O)c2ccc(N[C@H](CCN(C)C)CSc3ccccc3)c([N+](=O)[O-])c2)cc1" ) is 5.70

---

Target: Bcl-2-like protein 1 (Homo sapiens, UniProt Q07817, Y195F)
Assay: Displacement of BODIPY-Bak conjugated peptide from GST-tagged human Bcl-2-like protein 1 Y195F mutant expressed in Escherichia coli BL21 cells at 10 uM after 3 hrs by fluorescence polarization competition assay
QUANTITY: pKi
Answer as the number alone; pKi is minus log10 of concentration in mol/L.

Item: "CN(C)CC[C@H](CSc1ccccc1)Nc1ccc(S(=O)(=O)NC(=O)c2ccc(N3CCC(C)(C)CC3)cc2)cc1[N+](=O)[O-]" | System: Bcl-2-like protein 1 (Homo sapiens, UniProt Q07817, Y195F) | pKi: 7.29

---

Target: Bcl-2-like protein 1 (Homo sapiens, UniProt Q07817, E129H)
Test: Displacement of BODIPY-Bak conjugated peptide from GST-tagged human Bcl-2-like protein 1 E129H mutant expressed in Escherichia coli BL21 cells at 40 uM after 3 hrs by fluorescence polarization competition assay
pKi: −log10 of the molar value.
QUANTITY: pKi

Just so you know, measured pKi for "H-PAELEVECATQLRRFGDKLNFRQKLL-OH" came out at < 5.00

---

Biological target: Bcl-2-like protein 1 (Homo sapiens, UniProt Q07817, F97V)
Assay: Displacement of BODIPY-Bak conjugated peptide from GST-tagged human Bcl-2-like protein 1 F97V mutant expressed in Escherichia coli BL21 cells at 10 uM after 3 hrs by fluorescence polarization competition assay
QUANTITY: Ki (nM)
Value expressed in nM; do not type the unit.

Briefly, Ki measured for "CN(C)CC[C@H](CSc1ccccc1)Nc1ccc(S(=O)(=O)NC(=O)c2ccc(N3CCC(C)(C)CC3)cc2)cc1[N+](=O)[O-]" : 82

The measured values listed here are drawn from ChEMBL document CHEMBL1914418.
